# SUBJECT_OF_TEST: human recombinant 5-HT2c receptor (Homo sapiens, UniProt P28335)
# Sequence (P28335 33-458): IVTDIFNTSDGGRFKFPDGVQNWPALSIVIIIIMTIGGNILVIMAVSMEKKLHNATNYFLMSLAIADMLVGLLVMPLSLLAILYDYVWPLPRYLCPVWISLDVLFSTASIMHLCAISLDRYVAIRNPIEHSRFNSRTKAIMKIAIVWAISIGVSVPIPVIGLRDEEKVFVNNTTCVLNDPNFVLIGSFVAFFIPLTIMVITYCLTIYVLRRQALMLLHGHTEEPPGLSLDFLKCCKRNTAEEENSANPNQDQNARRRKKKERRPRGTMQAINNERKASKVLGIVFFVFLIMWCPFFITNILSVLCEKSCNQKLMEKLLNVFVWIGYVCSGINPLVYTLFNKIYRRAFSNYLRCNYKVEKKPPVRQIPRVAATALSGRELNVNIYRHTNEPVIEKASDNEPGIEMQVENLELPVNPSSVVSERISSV
# ASSAY_INFO: 3H-meselurgine radioligand binding SPA, membranes from Swiss 3T3 cells (Method 2)
# TEST_CONDITIONS: 3H-meselurgine displacement, Cheng-Prusoff; Swiss 3T3 membranes; read-out: Binding Affinity Ki
pKi: −log10 of the molar value. Counter-ions that a name gives are not always drawn.
RECORDED_ENDPOINT: pKi

Please give measured pKi of the following entry: COc1nc(N(C)Cc2ccccc2)nc2c1CCNCC2
7.26

// fetch pKi given entry OC1CCN(c2nc(Cc3ccccc3)nc3c2CCNCC3)C1 (stereo not drawn) [Example 44, hydrochloride]
6.86

Using the record for CC(C)[C@@H](CO)Nc1nc(Cc2ccccc2)nc2c1CCNCC2 [Example 24, hydrochloride] , state its measured pKi.
7.04

Return pKi for the following compound: FC(F)(F)c1cccc(Cc2ncc3c(n2)CCNCC3)c1
6.51

// Input: CCNc1nc(N(C)CC)nc2c1CCNCC2 . Output its pKi only.
7.79

State its pKi: c1ccc(Cc2nc3c(c(NCCn4cccn4)n2)CCNCC3)cc1 [Example 27, hydrochloride]
7.60

[1] CO[C@H]1CCN(c2nc(Cc3ccccc3)nc3c2CCNCC3)C1 [Example 26, hydrochloride]
[2] CN(C)c1nc(N(C)Cc2ccccc2)nc2c1CCNCC2
Dear colleague, could you let me know whether 1 or 2 has the lower recorded pKi? Thanks. Your answer should be the label of the entry you select.
1
(1: 6.64, 2: 6.84)
